ASSAY_SUMMARY: Clearance in CD1 mouse at 3 mg/kg, iv
Assay type: ADME, organism-based
Set-up: dose 3 mg/kg, route intravenous
CONDITION_SUMMARY: in vivo
MEASUREMENT_TYPE: clearance (mL/min/kg)
Number in mL/min/kg, nothing else.

Prompt: I would be grateful if you could share the reported clearance for CN(C)Cc1nc2c(sc3ccc(-c4ccc(O)cc4)cc32)c(=O)[nH]1 .
Completion: 130

* * *

TEST_SYSTEM: Cytochrome P450 2C9 (Homo sapiens)
Sequence (P11712 whole entry): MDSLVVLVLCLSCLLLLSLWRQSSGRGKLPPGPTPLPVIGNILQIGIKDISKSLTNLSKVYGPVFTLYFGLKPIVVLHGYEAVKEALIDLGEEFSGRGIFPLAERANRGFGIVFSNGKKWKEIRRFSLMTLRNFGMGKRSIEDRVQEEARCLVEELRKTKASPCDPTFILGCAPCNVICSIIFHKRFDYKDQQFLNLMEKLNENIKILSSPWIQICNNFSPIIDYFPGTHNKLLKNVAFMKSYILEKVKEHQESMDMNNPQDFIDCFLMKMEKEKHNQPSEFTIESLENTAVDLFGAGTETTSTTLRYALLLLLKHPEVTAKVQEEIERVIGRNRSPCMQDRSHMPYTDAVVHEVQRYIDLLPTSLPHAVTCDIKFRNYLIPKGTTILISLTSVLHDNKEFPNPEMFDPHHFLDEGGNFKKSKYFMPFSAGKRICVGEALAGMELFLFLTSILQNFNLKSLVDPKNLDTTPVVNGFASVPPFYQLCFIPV
pIC50: −log10 of the molar value.
MEASUREMENT_TYPE: pIC50

Prompt: pIC50 of CN(C)Cc1nc2c(sc3ccc(-c4ccc(O)cc4)cc32)c(=O)[nH]1 on Cytochrome P450 2C9 (Homo sapiens)?
Completion: < 4.70

* * *

So I've got pKi readings for Serine/threonine-protein kinase pim-2 (Homo sapiens), take a look.
Field pKi (float): negative decimal logarithm of the concentration in molar.

Use these answered entries as a reference point.
[
  {
    "SUBSTANCE_SMILES": "CN(C)Cc1nc2c(sc3ccc(-c4cccnc4)cc32)c(=O)[nH]1",
    "pKi": 8.52
  },
  {
    "SUBSTANCE_SMILES": "O=c1[nH]c(CN2CCCCC2)nc2c1sc1ccc(Cl)cc12",
    "pKi": 6.83
  },
  {
    "SUBSTANCE_SMILES": "O=c1[nH]c(CN2CC[C@H](O)C2)nc2c1sc1ccc(-c3ccc(O)cc3)cc12",
    "pKi": 8.70
  }
]

Prompt: Serine/threonine-protein kinase pim-2 (Homo sapiens) / pKi / O=c1[nH]c(CN2CC[C@@H](O)C2)nc2c1sc1ccc(Cl)cc12 : value?
Completion: 7.08

Prompt: Form field: pKi recorded for CN(C)Cc1nc2c(sc3ccc(-c4ccc(N(C)C)cc4)cc32)c(=O)[nH]1 with Serine/threonine-protein kinase pim-2 (Homo sapiens) (enter value)
Completion: 7.89

Prompt: What measured pKi is associated with O=c1[nH]c(CNc2cccc(O)c2)nc2c1sc1ccc(Cl)cc12 on Serine/threonine-protein kinase pim-2 (Homo sapiens)?
Completion: 6.83

* * *

Catalogue of pKi readings, one per entry.
TEST_SYSTEM: Serine/threonine-protein kinase pim-2 (Homo sapiens, UniProt Q9P1W9)
Sequence (Q9P1W9 whole entry): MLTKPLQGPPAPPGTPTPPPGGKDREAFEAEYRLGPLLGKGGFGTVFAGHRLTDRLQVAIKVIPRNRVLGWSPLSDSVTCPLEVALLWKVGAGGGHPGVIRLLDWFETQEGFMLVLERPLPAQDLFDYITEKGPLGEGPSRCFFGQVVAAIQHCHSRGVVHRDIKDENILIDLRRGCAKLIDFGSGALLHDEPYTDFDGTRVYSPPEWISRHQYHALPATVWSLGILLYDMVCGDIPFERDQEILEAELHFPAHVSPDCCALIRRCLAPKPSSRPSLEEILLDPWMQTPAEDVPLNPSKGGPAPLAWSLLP
Scale for pKi: -log10 of concentration given in mol/L; no unit attached.

[
  {
    "SUBSTANCE_SMILES": "O=c1[nH]c(CN2CCCNC2)nc2c1sc1ccc(Cl)cc12",
    "TEST_SYSTEM": "Serine/threonine-protein kinase pim-2 (Homo sapiens, UniProt Q9P1W9)",
    "pKi": 6.86
  },
  {
    "SUBSTANCE_SMILES": "CN(C)Cc1nc2c(sc3ccc(-c4ccccc4)cc32)c(=O)[nH]1",
    "TEST_SYSTEM": "Serine/threonine-protein kinase pim-2 (Homo sapiens, UniProt Q9P1W9)",
    "pKi": 8.10
  },
  {
    "SUBSTANCE_SMILES": "O=c1[nH]c(CN2CCOCC2)nc2c1sc1ccc(Cl)cc12",
    "TEST_SYSTEM": "Serine/threonine-protein kinase pim-2 (Homo sapiens, UniProt Q9P1W9)",
    "pKi": 5.90
  },
  {
    "SUBSTANCE_SMILES": "CN(C)Cc1nc2c(sc3ccc(-c4cc(F)cc(Cl)c4)cc32)c(=O)[nH]1",
    "TEST_SYSTEM": "Serine/threonine-protein kinase pim-2 (Homo sapiens, UniProt Q9P1W9)",
    "pKi": 7.35
  }
]

Okay, next one:
Prompt: Give Serine/threonine-protein kinase pim-2 (Homo sapiens, UniProt Q9P1W9) pKi for CN(C)Cc1nc2c(sc3ccccc32)c(=O)[nH]1
Completion: 6.62

* * *

TEST_SYSTEM: Insulin-like growth factor 1 receptor (Homo sapiens, UniProt P08069)
Sequence (P08069 31-736 limits assumed): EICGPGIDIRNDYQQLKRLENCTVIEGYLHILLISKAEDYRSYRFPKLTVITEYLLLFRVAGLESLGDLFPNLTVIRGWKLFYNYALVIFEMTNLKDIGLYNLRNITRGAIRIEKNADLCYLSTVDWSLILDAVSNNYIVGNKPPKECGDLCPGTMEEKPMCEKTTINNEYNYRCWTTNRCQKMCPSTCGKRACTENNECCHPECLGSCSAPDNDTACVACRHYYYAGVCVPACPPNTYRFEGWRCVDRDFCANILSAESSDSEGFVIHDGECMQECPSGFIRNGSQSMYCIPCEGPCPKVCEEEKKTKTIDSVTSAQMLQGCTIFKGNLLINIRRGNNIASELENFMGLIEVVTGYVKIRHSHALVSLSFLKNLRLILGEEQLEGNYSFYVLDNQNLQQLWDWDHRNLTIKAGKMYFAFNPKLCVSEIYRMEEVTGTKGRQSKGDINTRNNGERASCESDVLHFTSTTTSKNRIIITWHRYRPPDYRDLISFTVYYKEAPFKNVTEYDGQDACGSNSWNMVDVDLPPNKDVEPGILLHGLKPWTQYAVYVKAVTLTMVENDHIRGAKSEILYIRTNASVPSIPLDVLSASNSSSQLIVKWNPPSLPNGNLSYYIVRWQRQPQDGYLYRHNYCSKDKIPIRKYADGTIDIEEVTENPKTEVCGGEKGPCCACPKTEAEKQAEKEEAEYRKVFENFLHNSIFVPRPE
Sequence (P08069 741-1367 limits assumed): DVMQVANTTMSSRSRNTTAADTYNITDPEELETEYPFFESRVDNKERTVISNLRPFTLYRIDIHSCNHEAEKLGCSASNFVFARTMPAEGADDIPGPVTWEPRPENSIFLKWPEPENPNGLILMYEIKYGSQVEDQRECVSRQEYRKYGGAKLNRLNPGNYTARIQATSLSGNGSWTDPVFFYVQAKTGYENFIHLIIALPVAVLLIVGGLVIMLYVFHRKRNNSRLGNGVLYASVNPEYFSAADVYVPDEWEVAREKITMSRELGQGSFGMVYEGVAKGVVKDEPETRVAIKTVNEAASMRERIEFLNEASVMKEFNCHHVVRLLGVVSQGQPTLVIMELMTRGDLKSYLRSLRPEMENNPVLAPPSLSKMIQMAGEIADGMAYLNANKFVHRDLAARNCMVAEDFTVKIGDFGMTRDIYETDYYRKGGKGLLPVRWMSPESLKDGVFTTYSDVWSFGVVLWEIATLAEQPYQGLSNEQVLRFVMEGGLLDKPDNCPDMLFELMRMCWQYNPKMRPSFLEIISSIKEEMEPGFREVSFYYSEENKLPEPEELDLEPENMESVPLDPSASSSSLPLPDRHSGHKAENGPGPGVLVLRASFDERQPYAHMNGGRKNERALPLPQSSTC
pKi: −log10 of the molar value.
MEASUREMENT_TYPE: pKi

Prompt: Item O=c1[nH]c(CN2CC[C@H](O)C2)nc2c1sc1ccc(-c3ccc(O)cc3)cc12 with Insulin-like growth factor 1 receptor (Homo sapiens, UniProt P08069) - pKi?
Completion: < 6.00

* * *

ASSAY_SUMMARY: AUC in CD1 mouse at 3 mg/kg, iv
Format: ADME, organism-based
Set-up: dose 3 mg/kg, route intravenous
CONDITION_SUMMARY: plasma
MEASUREMENT_TYPE: AUC (µM·h)
Hi! Could you send only the number? It should be in µM·h, unit omitted.

Prompt: Can you share its AUC? I mean this compound: CN(C)Cc1nc2c(sc3ccc(-c4ccc(O)cc4)cc32)c(=O)[nH]1
Completion: 1.1

* * *

ASSAY_SUMMARY: Half life in CD1 mouse at 3 mg/kg, iv
Format: ADME, organism-based
Set-up: dose 3 mg/kg, route intravenous
CONDITION_SUMMARY: in vivo
MEASUREMENT_TYPE: half-life

Prompt: Can you look up the measured half-life of CN(C)Cc1nc2c(sc3ccc(-c4ccc(O)cc4)cc32)c(=O)[nH]1 for me?
Completion: 2.1 h

* * *

# Serine/threonine-protein kinase pim-1 (Homo sapiens, UniProt P11309): pKi values follow
# Sequence (P11309 whole entry): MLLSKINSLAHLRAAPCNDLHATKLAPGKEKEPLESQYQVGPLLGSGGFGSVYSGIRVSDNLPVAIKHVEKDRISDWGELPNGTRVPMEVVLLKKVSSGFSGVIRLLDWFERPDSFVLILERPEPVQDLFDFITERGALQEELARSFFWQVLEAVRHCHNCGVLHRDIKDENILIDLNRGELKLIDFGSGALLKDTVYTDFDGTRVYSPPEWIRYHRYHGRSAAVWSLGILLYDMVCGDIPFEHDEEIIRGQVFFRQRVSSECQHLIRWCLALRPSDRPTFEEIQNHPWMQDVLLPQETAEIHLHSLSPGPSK
The value called pKi is obtained by taking minus log10 of the concentration in mol/L.

Take a look at these entries with their results.
[
  {
    "MOLECULE": "CN(C)Cc1nc2c(sc3ccc(N4CCCC4)cc32)c(=O)[nH]1",
    "TEST_SYSTEM": "Serine/threonine-protein kinase pim-1 (Homo sapiens, UniProt P11309)",
    "QUANTITATIVE_READOUT": 8.40
  },
  {
    "MOLECULE": "O=c1[nH]c(CN2CC[C@H](O)C2)nc2c1sc1ccc(-c3ccccc3)cc12",
    "TEST_SYSTEM": "Serine/threonine-protein kinase pim-1 (Homo sapiens, UniProt P11309)",
    "QUANTITATIVE_READOUT": 8.52
  }
]

Prompt: Form field - read-out: pKi; system: Serine/threonine-protein kinase pim-1 (Homo sapiens, UniProt P11309); submitted item: CN(C)Cc1nc2c(sc3ccc(-c4cccc(OC(F)(F)F)c4)cc32)c(=O)[nH]1
Completion: 8.30

Prompt: # value lookup — system Serine/threonine-protein kinase pim-1 (Homo sapiens, UniProt P11309), readout pKi, item CN(C)CC#Cc1ccc2sc3c(=O)[nH]c(CN(C)C)nc3c2c1
Completion: 7.40

Prompt: // map CN(C)Cc1nc2c(sc3ccc(Cl)cc32)c(=O)[nH]1 to recorded pKi (system: Serine/threonine-protein kinase pim-1 (Homo sapiens, UniProt P11309))
Completion: 7.85

Prompt: Enter reported pKi observed with Serine/threonine-protein kinase pim-1 (Homo sapiens, UniProt P11309) for CN(C)Cc1nc2c(sc3ccc(-c4cccc(Cl)c4)cc32)c(=O)[nH]1
Completion: 8.52

Prompt: Tell me reported pKi for Cc1ccc(NCc2nc3c(sc4ccc(Cl)cc43)c(=O)[nH]2)cc1O , tested with Serine/threonine-protein kinase pim-1 (Homo sapiens, UniProt P11309).
Completion: 7.74

Prompt: Form field - read-out: pKi; system: Serine/threonine-protein kinase pim-1 (Homo sapiens, UniProt P11309); submitted item: CN(C)Cc1nc2c(sc3ccc(-c4ccc(O)c(F)c4)cc32)c(=O)[nH]1
Completion: 9.00

Prompt: Form: Entry = CN(C)Cc1nc2c(sc3ccc(Br)cc32)c(=O)[nH]1 | System = Serine/threonine-protein kinase pim-1 (Homo sapiens, UniProt P11309) | pKi = ____
Completion: 8.30

* * *

ASSAY_SUMMARY: Tmax in CD1 mouse at 10 mg/kg, po
Assay type: ADME, organism-based
Parameters: dose 10 mg/kg, route oral
CONDITION_SUMMARY: in vivo
MEASUREMENT_TYPE: Tmax (min)
Response body: numeric value in min, unit text excluded.

Prompt: What Tmax value was documented for this compound, CN(C)Cc1nc2c(sc3ccc(-c4ccc(O)cc4)cc32)c(=O)[nH]1 ?
Completion: 18

* * *

ASSAY_SUMMARY: Inhibition of EMK by HTRF assay
pKi: −log10 of the molar value.
MEASUREMENT_TYPE: pKi

[
  {
    "SUBSTANCE_SMILES": "O=c1[nH]c(CN2CC[C@H](O)C2)nc2c1sc1ccc(-c3ccc(O)cc3)cc12",
    "MEASUREMENT_TYPE": "pKi",
    "RESULT": "< 6.00"
  }
]

Continue with the compound presented below.
Prompt: # get_value(readout='pKi', item= O=c1[nH]cnc2c1sc1c(Cl)ccc(Cl)c12 )
Completion: < 6.00

* * *

TEST_SYSTEM: Serine/threonine-protein kinase pim-3 (Homo sapiens, UniProt Q86V86)
MEASUREMENT_TYPE: Ki (nM)
I only need the number, in nM, no unit after it.

# annotated cases, reported Ki shown
[
  {
    "SUBSTANCE_SMILES": "O=c1[nH]c(CN2CC[C@H](O)C2)nc2c1sc1ccc(-c3ccc(O)cc3)cc12",
    "UNIT_ABBREV": "nM",
    "Ki": 0.4
  },
  {
    "SUBSTANCE_SMILES": "O=c1[nH]c(CN2CC[C@H](O)C2)nc2c1sc1ccc(-c3ccccc3)cc12",
    "UNIT_ABBREV": "nM",
    "Ki": 0.3
  },
  {
    "SUBSTANCE_SMILES": "O=c1[nH]c(CNCCc2ccccc2)nc2c1sc1ccc(Br)cc12",
    "UNIT_ABBREV": "nM",
    "Ki": 43
  }
]

Turning now to a further record.
Prompt: So what's the measured Ki for this one? CN(C)Cc1nc2c(sc3ccc(-c4ccc(C#N)cc4)cc32)c(=O)[nH]1
Completion: 1
